# ASSAYED_TARGET: TTR Transthyretin (Homo sapiens)
# Construct: isoTOP-ABPP experiments performed in cell lysates (in vitro); endogenous in cells; host or cells: MDA-MB-231 soluble lysate
# METHOD_SUMMARY: competitive isoTOP-ABPP
# Type: binding
# MEASUREMENT_CONDITIONS: P02766_K35; 50 uM, 231 sol, in vitro
This listing pairs molecules with measured R value (DMSO/fragment) for probe 1 labeling.
PARAMETER: R value (DMSO/fragment) for probe 1 labeling

MOLECULE	MEASURED
O=C(Oc1c(F)c(F)c(F)c(F)c1F)c1cc(C(F)(F)F)cc(C(F)(F)F)c1	2.6
Cn1cc(CC(=O)Oc2c(F)c(F)c(F)c(F)c2F)c2ccccc21	2.6
O=C(Oc1c(F)c(F)c(F)c(F)c1F)C(c1ccccc1)c1ccccc1 [fragment 20, Pentafluorophenyl 2,2-diphenylacetate]	1.4
COc1cc(CCC(=O)Oc2c(F)c(F)c(F)c(F)c2F)cc(OC)c1OC	1.0

* * *

# ASSAYED_TARGET: FECH Ferrochelatase, mitochondrial (Homo sapiens, UniProt P22830)
# Construct: isoTOP-ABPP experiments performed in cell lysates (in vitro); endogenous in cells; host or cells: soluble proteome of human cancer cell lines (MDA-MB-231; Ramos and Jurkat also prepared)
# Sequence (P22830 55-423): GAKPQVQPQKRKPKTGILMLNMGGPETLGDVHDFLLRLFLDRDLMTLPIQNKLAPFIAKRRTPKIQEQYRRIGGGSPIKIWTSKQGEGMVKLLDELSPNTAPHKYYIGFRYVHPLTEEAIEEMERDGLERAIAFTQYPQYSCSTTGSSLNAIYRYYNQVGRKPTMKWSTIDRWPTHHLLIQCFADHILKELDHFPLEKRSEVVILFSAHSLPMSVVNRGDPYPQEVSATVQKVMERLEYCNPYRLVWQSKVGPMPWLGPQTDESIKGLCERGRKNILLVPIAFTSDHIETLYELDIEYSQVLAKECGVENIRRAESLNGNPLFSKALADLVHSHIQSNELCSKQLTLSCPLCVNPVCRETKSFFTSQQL
# METHOD_SUMMARY: competitive isoTOP-ABPP
# Assay type: binding
# MEASUREMENT_CONDITIONS: 50 uM, 231 sol, in vitro
This listing pairs molecules with measured isoTOP-ABPP reactivity ratio at lysine P22830_K304.
PARAMETER: isoTOP-ABPP reactivity ratio at lysine P22830_K304

TEST_SMILES	MEASURED
O=C(Oc1ccc([N+](=O)[O-])cc1[N+](=O)[O-])c1cc(C(F)(F)F)cc(C(F)(F)F)c1	3.2
COc1cc(CCC(=O)Oc2ccc([N+](=O)[O-])cc2[N+](=O)[O-])cc(OC)c1OC	1.7
O=C(Oc1c(F)c(F)c(F)c(F)c1F)C1CCN(C(=O)OCc2ccccc2)CC1	1.5
O=C(Oc1c(F)c(F)c(F)c(F)c1F)c1ccc2ccccc2n1	1.0
O=C(CCc1cn(-c2ccccc2)nc1-c1ccccc1)Oc1ccc([N+](=O)[O-])cc1[N+](=O)[O-]	5.4
O=C(CN1C(=O)c2ccccc2C1=O)Oc1c(F)c(F)c(F)c(F)c1F	1.5
CCn1cc(C(=O)Oc2c(F)c(F)c(F)c(F)c2F)c(=O)c2ccc(C)nc21	1.5
O=C(CCc1coc2cc(F)ccc2c1=O)Oc1c(F)c(F)c(F)c(F)c1F	1.7

* * *

# ASSAYED_TARGET: TPD52L2 Tumor protein D54 (Homo sapiens)
# Construct: isoTOP-ABPP experiments performed in cell lysates (in vitro); endogenous in cells; host or cells: MDA-MB-231 soluble lysate
# Sequence (O43399 whole entry): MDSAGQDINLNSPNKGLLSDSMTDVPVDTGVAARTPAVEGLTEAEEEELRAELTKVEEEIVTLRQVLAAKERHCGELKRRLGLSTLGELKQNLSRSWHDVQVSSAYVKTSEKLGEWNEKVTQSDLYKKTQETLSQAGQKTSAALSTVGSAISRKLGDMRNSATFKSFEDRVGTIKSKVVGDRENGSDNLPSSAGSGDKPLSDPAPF
# METHOD_SUMMARY: competitive isoTOP-ABPP
# Format: binding
# MEASUREMENT_CONDITIONS: 50 uM, in vitro, sol, 231
This listing pairs compounds with measured isoTOP-ABPP ratio (R) at liganded lysine O43399_K90.
PARAMETER: isoTOP-ABPP ratio (R) at liganded lysine O43399_K90

COMPOUND	MEASURED
O=C(Oc1ccc([N+](=O)[O-])cc1[N+](=O)[O-])c1ccccc1Nc1cccc(C(F)(F)F)c1 [fragment 40]	1.2
O=C(CCc1coc2cc(F)ccc2c1=O)Oc1ccc([N+](=O)[O-])cc1[N+](=O)[O-] [fragment 36]	1.3
O=C(CC12CC3CC(CC(C3)C1)C2)Oc1ccc([N+](=O)[O-])cc1[N+](=O)[O-] [fragment 38]	2.9
CC(=O)Oc1ccc([N+](=O)[O-])cc1[N+](=O)[O-] [fragment 43, 2,4-Dinitrophenyl acetate]	1.1
CC(C)(C)OC(=O)NCCCC(=O)Oc1ccc([N+](=O)[O-])cc1[N+](=O)[O-] [fragment 41]	1.3
O=C(Oc1ccc([N+](=O)[O-])cc1[N+](=O)[O-])c1ccc2ccccc2n1 [fragment 35]	1.3
O=C(Oc1ccc([N+](=O)[O-])cc1[N+](=O)[O-])C1CCN(C(=O)OCc2ccccc2)CC1 [fragment 34]	1.8
O=C(Oc1ccc([N+](=O)[O-])cc1[N+](=O)[O-])c1ccc(-c2ccccc2)cc1 [fragment 37]	1.6
O=C(Oc1ccc([N+](=O)[O-])cc1[N+](=O)[O-])c1ccc(Oc2ccccc2)cc1 [fragment 39, 2,4-Dinitrophenyl 4-phenoxybenzoate]	1.3
O=C(Oc1ccc([N+](=O)[O-])cc1[N+](=O)[O-])C(c1ccccc1)(c1ccccc1)c1ccccc1 [fragment 42, 2,4-Dinitrophenyl 2,2,2-triphenylacetate]	1.0

* * *

# ASSAYED_TARGET: RPL10 60S ribosomal protein L10 (Homo sapiens, UniProt P27635)
# Construct: isoTOP-ABPP experiments performed in cell lysates (in vitro); endogenous in cells; host or cells: soluble proteome of human cancer cell lines (MDA-MB-231; Ramos and Jurkat also prepared)
# METHOD_SUMMARY: competitive isoTOP-ABPP
# Type: binding
# MEASUREMENT_CONDITIONS: 50 uM, in vitro, sol, 231
# Protocol: In vitro covalent fragment treatment for isoTOP-ABPP. All compounds were made up as solutions in DMSO (100×) and were used at a final concentration of 50 μM for activated esters and 100 μM for guanidinylating agents. […] R value calculation and processing. The ratios of light and heavy MS1 peaks for each unique peptide were quantified with a CIMAGE software using default parameters (3 MS1 acquisitions per peak and signal to noise threshold set to 2.5). […]
PARAMETER: isoTOP-ABPP ratio (R) at liganded lysine P27635_K121

COMPOUND	MEASURED
CC(=O)Oc1ccc([N+](=O)[O-])cc1[N+](=O)[O-] [fragment 43, 2,4-Dinitrophenyl acetate]	20.0
CC(C)(C)OC(=O)NCCCC(=O)Oc1ccc([N+](=O)[O-])cc1[N+](=O)[O-] [fragment 41]	0.8
O=C(Oc1ccc([N+](=O)[O-])cc1[N+](=O)[O-])c1ccc(Oc2ccccc2)cc1 [fragment 39, 2,4-Dinitrophenyl 4-phenoxybenzoate]	1.0
O=C(CCc1coc2cc(F)ccc2c1=O)Oc1ccc([N+](=O)[O-])cc1[N+](=O)[O-] [fragment 36]	0.5

* * *

# ASSAYED_TARGET: DNMT1 DNA (cytosine-5)-methyltransferase 1 (Homo sapiens)
# Construct: isoTOP-ABPP experiments performed in cell lysates (in vitro); endogenous in cells; host or cells: soluble proteome of human cancer cell lines (MDA-MB-231; Ramos and Jurkat also prepared)
# Sequence (P26358 whole entry): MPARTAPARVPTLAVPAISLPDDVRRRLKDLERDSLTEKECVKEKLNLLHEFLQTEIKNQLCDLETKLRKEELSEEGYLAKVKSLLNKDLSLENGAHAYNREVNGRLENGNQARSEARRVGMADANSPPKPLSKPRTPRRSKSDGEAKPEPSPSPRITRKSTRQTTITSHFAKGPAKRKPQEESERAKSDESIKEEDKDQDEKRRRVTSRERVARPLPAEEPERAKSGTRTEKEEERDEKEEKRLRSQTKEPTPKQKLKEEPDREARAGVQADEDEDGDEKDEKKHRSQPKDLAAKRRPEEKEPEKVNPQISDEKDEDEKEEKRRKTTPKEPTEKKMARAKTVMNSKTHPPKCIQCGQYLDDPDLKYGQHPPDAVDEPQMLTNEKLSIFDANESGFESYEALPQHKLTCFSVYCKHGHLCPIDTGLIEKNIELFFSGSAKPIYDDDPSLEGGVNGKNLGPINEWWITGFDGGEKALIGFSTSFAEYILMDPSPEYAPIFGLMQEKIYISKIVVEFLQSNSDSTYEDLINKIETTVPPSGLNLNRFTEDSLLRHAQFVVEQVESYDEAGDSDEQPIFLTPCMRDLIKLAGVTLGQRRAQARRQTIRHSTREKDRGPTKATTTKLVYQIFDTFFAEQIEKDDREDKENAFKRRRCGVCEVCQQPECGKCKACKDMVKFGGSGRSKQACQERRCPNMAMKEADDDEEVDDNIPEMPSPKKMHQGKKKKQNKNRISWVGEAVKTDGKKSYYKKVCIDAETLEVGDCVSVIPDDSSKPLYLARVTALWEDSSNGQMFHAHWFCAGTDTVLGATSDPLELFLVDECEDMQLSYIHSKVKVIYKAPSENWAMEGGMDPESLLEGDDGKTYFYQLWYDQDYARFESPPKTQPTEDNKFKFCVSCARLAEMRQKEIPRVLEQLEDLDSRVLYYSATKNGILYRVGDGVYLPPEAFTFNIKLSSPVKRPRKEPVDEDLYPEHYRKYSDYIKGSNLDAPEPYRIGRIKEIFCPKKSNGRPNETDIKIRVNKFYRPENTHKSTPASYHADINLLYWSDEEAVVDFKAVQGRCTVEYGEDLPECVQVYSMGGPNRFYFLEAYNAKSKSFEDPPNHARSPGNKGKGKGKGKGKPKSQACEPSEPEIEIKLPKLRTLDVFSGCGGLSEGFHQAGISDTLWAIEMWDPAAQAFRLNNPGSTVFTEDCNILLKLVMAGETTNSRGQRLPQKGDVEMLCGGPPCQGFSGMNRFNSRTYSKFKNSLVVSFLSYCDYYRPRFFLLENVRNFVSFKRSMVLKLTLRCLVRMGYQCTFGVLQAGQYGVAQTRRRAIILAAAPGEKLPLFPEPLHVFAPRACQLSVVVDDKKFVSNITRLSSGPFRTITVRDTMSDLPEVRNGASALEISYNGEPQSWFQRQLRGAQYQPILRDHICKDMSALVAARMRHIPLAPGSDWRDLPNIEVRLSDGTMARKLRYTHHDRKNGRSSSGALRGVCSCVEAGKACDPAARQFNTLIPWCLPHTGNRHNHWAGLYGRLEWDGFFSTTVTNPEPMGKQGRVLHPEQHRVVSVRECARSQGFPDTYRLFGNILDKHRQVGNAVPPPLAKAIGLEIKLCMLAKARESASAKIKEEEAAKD
# METHOD_SUMMARY: competitive isoTOP-ABPP
# Format: binding
# MEASUREMENT_CONDITIONS: 50 uM_231_sol_in vitro
PARAMETER: isoTOP-ABPP ratio, lysine P26358_K45

COMPOUND	PARAMETER	MEASURED
O=C(Oc1c(F)c(F)cc(F)c1F)c1cc(C(F)(F)F)cc(C(F)(F)F)c1	isoTOP-ABPP ratio, lysine P26358_K45	1.1
N#Cc1ccc(C(=O)Oc2ccc([N+](=O)[O-])cc2[N+](=O)[O-])cc1 [fragment 44, 2,4-Dinitrophenyl 4-cyanobenzoate]	isoTOP-ABPP ratio, lysine P26358_K45	0.7
O=C(ON1C(=O)CCC1=O)c1cc(C(F)(F)F)cc(C(F)(F)F)c1	isoTOP-ABPP ratio, lysine P26358_K45	2.4
O=C(CCc1ccc2c(c1)OCO2)Oc1ccc([N+](=O)[O-])cc1[N+](=O)[O-]	isoTOP-ABPP ratio, lysine P26358_K45	1.0

* * *

This listing pairs compounds with measured isoTOP-ABPP ratio (R) at liganded lysine P61289_K12.
# ASSAYED_TARGET: PSME3 Proteasome activator complex subunit 3 (Homo sapiens)
# Construct: isoTOP-ABPP experiments performed in cell lysates (in vitro); endogenous in cells; host or cells: soluble proteome of human cancer cell lines (MDA-MB-231, Ramos, Jurkat)
# Sequence (P61289 whole entry, one chain of several): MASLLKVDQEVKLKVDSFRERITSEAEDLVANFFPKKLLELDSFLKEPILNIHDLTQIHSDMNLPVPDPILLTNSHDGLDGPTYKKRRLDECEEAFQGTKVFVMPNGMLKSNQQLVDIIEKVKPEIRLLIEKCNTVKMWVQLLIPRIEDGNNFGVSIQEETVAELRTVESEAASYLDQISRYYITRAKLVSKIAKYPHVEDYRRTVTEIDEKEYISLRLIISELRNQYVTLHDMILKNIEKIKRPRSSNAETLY
# METHOD_SUMMARY: competitive isoTOP-ABPP
# Type: binding
# MEASUREMENT_CONDITIONS: 50 uM, in vitro, sol, 231
PARAMETER: isoTOP-ABPP ratio (R) at liganded lysine P61289_K12

COMPOUND	MEASURED
CC(C)(C)OC(=O)NCCCC(=O)Oc1ccc([N+](=O)[O-])cc1[N+](=O)[O-]	3.5
O=C(Oc1ccc([N+](=O)[O-])cc1[N+](=O)[O-])c1ccc(-c2ccccc2)cc1	0.9
O=C(Oc1ccc([N+](=O)[O-])cc1[N+](=O)[O-])C(c1ccccc1)(c1ccccc1)c1ccccc1 [fragment 42, 2,4-Dinitrophenyl 2,2,2-triphenylacetate]	0.9
O=C(Oc1ccc([N+](=O)[O-])cc1[N+](=O)[O-])c1ccccc1Nc1cccc(C(F)(F)F)c1	0.8

* * *

# ASSAYED_TARGET: SIN3A Paired amphipathic helix protein Sin3a (Homo sapiens, UniProt Q96ST3)
# Construct: isoTOP-ABPP experiments performed in cell lysates (in vitro); endogenous in cells; host or cells: soluble proteome of human cancer cell lines (MDA-MB-231; Ramos and Jurkat also prepared)
# Sequence (Q96ST3 1-1273): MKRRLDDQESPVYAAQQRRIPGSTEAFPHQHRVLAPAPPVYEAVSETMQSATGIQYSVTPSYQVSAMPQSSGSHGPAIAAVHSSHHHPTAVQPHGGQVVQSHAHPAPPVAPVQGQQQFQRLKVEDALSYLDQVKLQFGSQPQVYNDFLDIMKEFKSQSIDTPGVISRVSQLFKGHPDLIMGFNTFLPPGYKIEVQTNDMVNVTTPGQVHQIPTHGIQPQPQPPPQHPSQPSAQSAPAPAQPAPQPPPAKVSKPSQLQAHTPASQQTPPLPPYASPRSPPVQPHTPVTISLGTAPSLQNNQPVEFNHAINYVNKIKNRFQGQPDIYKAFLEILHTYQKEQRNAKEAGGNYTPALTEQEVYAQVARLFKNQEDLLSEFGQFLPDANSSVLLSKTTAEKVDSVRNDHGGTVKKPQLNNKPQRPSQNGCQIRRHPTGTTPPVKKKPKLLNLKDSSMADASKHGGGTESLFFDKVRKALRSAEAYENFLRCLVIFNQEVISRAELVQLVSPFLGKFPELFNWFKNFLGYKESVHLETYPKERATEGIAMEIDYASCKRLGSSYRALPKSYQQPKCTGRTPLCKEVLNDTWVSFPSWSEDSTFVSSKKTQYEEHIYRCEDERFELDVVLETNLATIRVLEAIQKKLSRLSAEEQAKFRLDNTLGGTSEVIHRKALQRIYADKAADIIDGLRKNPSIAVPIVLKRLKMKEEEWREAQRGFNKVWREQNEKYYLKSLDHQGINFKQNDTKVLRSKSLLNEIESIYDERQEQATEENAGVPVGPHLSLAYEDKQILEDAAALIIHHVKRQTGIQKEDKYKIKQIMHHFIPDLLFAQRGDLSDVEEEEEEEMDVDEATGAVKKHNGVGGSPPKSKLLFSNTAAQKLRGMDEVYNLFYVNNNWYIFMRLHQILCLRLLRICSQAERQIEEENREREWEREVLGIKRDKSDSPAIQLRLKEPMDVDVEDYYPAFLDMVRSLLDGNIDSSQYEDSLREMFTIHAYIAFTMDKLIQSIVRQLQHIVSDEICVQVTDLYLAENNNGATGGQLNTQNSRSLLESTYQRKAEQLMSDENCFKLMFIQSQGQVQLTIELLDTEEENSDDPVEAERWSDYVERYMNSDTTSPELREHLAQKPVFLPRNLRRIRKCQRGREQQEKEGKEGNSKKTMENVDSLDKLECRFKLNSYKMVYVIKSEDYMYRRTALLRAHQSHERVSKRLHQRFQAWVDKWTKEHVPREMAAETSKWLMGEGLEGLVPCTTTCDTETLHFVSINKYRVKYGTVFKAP
# METHOD_SUMMARY: competitive isoTOP-ABPP
# Assay type: binding
# MEASUREMENT_CONDITIONS: 50 uM, 231 sol, in vitro
# Procedure: In vitro covalent fragment treatment for isoTOP-ABPP. All compounds were made up as solutions in DMSO (100×) and were used at a final concentration of 50 μM for activated esters and 100 μM for guanidinylating agents. […] R value calculation and processing. The ratios of light and heavy MS1 peaks for each unique peptide were quantified with a CIMAGE software using default parameters (3 MS1 acquisitions per peak and signal to noise threshold set to 2.5). […]
Label true when isoTOP-ABPP reactivity ratio at lysine Q96ST3_K155 is at or above 5; anything below gets false.

COMPOUND	ASSAYED_TARGET	CAT
Cn1cc(CC(=O)Oc2ccc([N+](=O)[O-])cc2[N+](=O)[O-])c2ccccc21	SIN3A Paired amphipathic helix protein Sin3a (Homo sapiens, UniProt Q96ST3)	true
O=C(CN1C(=O)c2ccccc2C1=O)Oc1c(F)c(F)c(F)c(F)c1F	SIN3A Paired amphipathic helix protein Sin3a (Homo sapiens, UniProt Q96ST3)	true
O=C(Oc1c(F)c(F)c(F)c(F)c1F)C1CCN(C(=O)OCc2ccccc2)CC1	SIN3A Paired amphipathic helix protein Sin3a (Homo sapiens, UniProt Q96ST3)	false
O=C(Oc1ccc([N+](=O)[O-])cc1[N+](=O)[O-])C(c1ccccc1)c1ccccc1 [fragment 30, 2,4-Dinitrophenyl 2,2-diphenylacetate]	SIN3A Paired amphipathic helix protein Sin3a (Homo sapiens, UniProt Q96ST3)	true
COc1cc(CCC(=O)Oc2ccc([N+](=O)[O-])cc2[N+](=O)[O-])cc(OC)c1OC	SIN3A Paired amphipathic helix protein Sin3a (Homo sapiens, UniProt Q96ST3)	false
O=C(CCc1cn(-c2ccccc2)nc1-c1ccccc1)Oc1ccc([N+](=O)[O-])cc1[N+](=O)[O-]	SIN3A Paired amphipathic helix protein Sin3a (Homo sapiens, UniProt Q96ST3)	false
O=C(Oc1ccc([N+](=O)[O-])cc1[N+](=O)[O-])c1cc(C(F)(F)F)cc(C(F)(F)F)c1	SIN3A Paired amphipathic helix protein Sin3a (Homo sapiens, UniProt Q96ST3)	true
O=C(CCc1coc2cc(F)ccc2c1=O)Oc1c(F)c(F)c(F)c(F)c1F	SIN3A Paired amphipathic helix protein Sin3a (Homo sapiens, UniProt Q96ST3)	false
O=C(Oc1c(F)c(F)c(F)c(F)c1F)c1ccc2ccccc2n1	SIN3A Paired amphipathic helix protein Sin3a (Homo sapiens, UniProt Q96ST3)	true
